Each item that follows carries a reported MIC.
Tested on: Aspergillus niger
Test: Antifungal activity against Aspergillus niger ATCC 16404 after 3 days by broth macrodilution method
Assay type: functional
Details: ATCC 16404, 72 h
outcome_measure: MIC

- CCOC(=O)c1sc2ccccc2c1Nc1cccnc1: > 200 µg/mL
- CCOC(=O)c1sc2ccccc2c1Nc1ccc(F)cc1: > 200 µg/mL
- C[C@@H]1[C@H](O)[C@@H](C)/C=C/C=C/C=C/C=C/C=C/C=C/C=C/[C@H](O[C@@H]2O[C@H](C)[C@@H](O)[C@H](N)[C@@H]2O)C[C@@H]2O[C@](O)(C[C@@H](O)C[C@@H](O)[C@H](O)CC[C@@H](O)C[C@@H](O)CC(=O)O[C@H]1C)C[C@H](O)[C@H]2C(=O)O: 1 µg/mL
- CCOC(=O)c1sc2ccccc2c1Nc1ccc(OC)cc1OC: > 200 µg/mL
- CCOC(=O)c1sc2ccccc2c1Nc1ccc(OC)cc1: > 200 µg/mL
- c1cncc(Nc2csc3ccccc23)c1: 50 µg/mL
- CCOC(=O)c1sc2ccccc2c1Nc1ccc(O)cc1: > 200 µg/mL
- CCOC(=O)c1sc2ccccc2c1Nc1ccc(O)cc1O: > 100 µg/mL

Provenance of the data: ChEMBL document CHEMBL1156731
